molecular target: HIV-integrase (Human immunodeficiency virus type 1 group M subtype B, UniProt P12497); construct: Recombinant integrase (0.26 ng) was incubated with the beads; experiment: HIV-Integrase Inhibition Activity (SPA bead integration assay with P33 labeled target DNA); assay type: biochemical; settings: recombinant integrase, class symbols; read-out: in vitro activity
pIC50: −log10 of the molar value.
Examples of molecules with documented pIC50 follow.

These solved cases illustrate the format of a correct answer.
CN(C)C(=O)C(=O)NC12CCC(CC1)Cn1c2nc(C(=O)NCc2ccccc2-c2ccccc2)c(O)c1=O; > 8.00
COc1c(C(=O)NCc2ccc(F)cc2)nc2n(c1=O)CC1CCC2(NC(=O)CCC(=O)O)CC1; < 7.00
CN(C)C(=O)C(=O)N(CCO)C12CCC(CC1)Cn1c2nc(C(=O)NCc2ccc(F)cc2)c(O)c1=O; > 8.00
O=C1CC[C@@H](C(=O)NC23CCC(CC2)Cn2c3nc(C(=O)NCc3ccc(F)cc3)c(O)c2=O)N1; > 8.00
CN(C)C(=O)C(=O)NC12CCC(Cn3c1nc(C(=O)NCc1ccc(F)cc1)c(O)c3=O)C2 (stereo not shown) [Example 188]; > 8.00
CN(C)C(=O)C(=O)NC12CCC(CC1)Cn1c2nc(C(=O)NCc2ccc(F)c(C#N)c2)c(O)c1=O; > 8.00

Here's the next entry for you.
query: Consider the molecule COc1ccc(CCNC(=O)c2nc3n(c(=O)c2O)CC2CCC3(NC(=O)C(=O)N(C)C)CC2)cc1 and give its recorded pIC50.
result: < 7.00

----------
Examples of compounds with documented pIC50 follow.
Target: HIV-integrase (Human immunodeficiency virus type 1 group M subtype B, UniProt P12497)
Construct: Recombinant integrase (0.26 ng) was incubated with the beads
Assay: HIV-Integrase Inhibition Activity (SPA bead integration assay with P33 labeled target DNA)
Format: biochemical
Settings: recombinant integrase, class symbols; read-out: in vitro activity
Method: HIV-Integrase Inhibition Activity. To evaluate in-vitro activity against HIV-integrase, 5 pmole of biotin labeled substrate DNA was bound to 100 μg of Streptavidin coated PVT SPA beads (Amersham Pharmacia Biotech). Recombinant integrase (0.26 ng) was incubated with the beads for 90 min at 37° C. […] Samples were counted in TopCountNXT (Packard) and the CPM was used as a measure of integration. […]
pIC50: −log10 of the molar value.

CN(C)C(=O)C(=O)NC12CCC(CCn3c1nc(C(=O)NCc1ccc(F)cc1)c(O)c3=O)C2 (single isomer, unassigned) [Example 413]; > 8.00
CNC(=O)NC12CCC(CC1)Cn1c2nc(C(=O)NCc2ccc(F)c(C)c2)c(O)c1=O; > 8.00
CC(CCc1ccccc1)NC(=O)c1nc2n(c(=O)c1O)CC1CCC2(NC(=O)C(=O)N(C)C)CC1 (stereo not shown); 7.00 to 8.00

Here's the next entry for you.
query: Consider the compound COC1CCN(C(=O)C(=O)NC23CCC(CC2)Cn2c3nc(C(=O)NCc3ccc(F)cc3)c(O)c2=O)C1 (stereo not shown) and give its recorded pIC50.
result: > 8.00

----------
target: HIV-integrase (Human immunodeficiency virus type 1 group M subtype B, UniProt P12497); construct: Recombinant integrase (0.26 ng) was incubated with the beads; assay: HIV-Integrase Inhibition Activity (SPA bead integration assay with P33 labeled target DNA); format: biochemical; details: recombinant integrase, class symbols; read-out: in vitro activity
pIC50: −log10 of the molar value.
ENDPOINT: pIC50

These solved cases illustrate the format of a correct answer.
O=C(NC12CCC(CC1)Cn1c2nc(C(=O)NCc2ccc(F)cc2)c(O)c1=O)C(=O)N1CCC(F)(F)C1 [Example 70]; > 8.00
Cn1ccnc1CN1CCN(C(=O)C(=O)NC23CCC(CC2)Cn2c3nc(C(=O)NCc3ccc(F)cc3)c(O)c2=O)CC1 [Example 137]; > 8.00
CS(=O)(=O)N1[C@@H]2C[C@@H]2C[C@H]1C(=O)NC12CCC(CC1)Cn1c2nc(C(=O)NCc2ccc(F)cc2)c(O)c1=O [Example 294]; > 8.00
Cc1cnc(CNC(=O)c2nc3n(c(=O)c2O)CC2CCC3(NC(=O)C(=O)N(C)C)CC2)cn1 [Example 389]; 7.00 to 8.00

query: Consider the compound O=C(NCc1ccc(F)cc1)c1nc2n(c(=O)c1O)CC1CCC2(NC(=O)C2CCCN2C(=O)C2CCC2)CC1 (stereo not drawn) [Example 400] and give its recorded pIC50.
result: > 8.00

query: Consider the compound C=C[C@@H]1C[C@]1(NS(C)(=O)=O)C(=O)NC12CCC(CC1)Cn1c2nc(C(=O)NCc2ccc(F)cc2)c(O)c1=O [Example 278] and give its recorded pIC50.
result: > 8.00

query: Consider the compound CN(C)C(=O)C(=O)NC12CCC(CC1)Cn1c2nc(C(=O)NCCNc2ccccc2)c(O)c1=O [Example 342] and give its recorded pIC50.
result: 7.00 to 8.00

query: Consider the compound Cn1nnnc1C(=O)NC12CCC(CC1)Cn1c2nc(C(=O)NCc2ccc(F)cc2)c(O)c1=O [Example 249] and give its recorded pIC50.
result: > 8.00

query: Consider the compound O=C(O)C(=O)NC12CCC(CC1)Cn1c2nc(C(=O)NCc2ccc(F)cc2)c(O)c1=O [Example 84] and give its recorded pIC50.
result: > 8.00
